- assayDetails: NCI Yeast Anticancer Drug Screen. Data for the bub3 strain (AID 167)
- conditionLabel: S. cerevisiae bub3 mutant strain, at 50.0 µM
About 79,000 compounds went through this panel and 15% of them were active in at least one assay; those are over-represented in the sample as a whole. Active and inactive are the calls of the source. Rule as the data show it: active = growth inhibition above about 70%; inactive = the rest.
Outcomes: 1 (active), -1 (inactive)

molecule: Nc1ccc(Br)cc1C(=O)c1ccccc1
assignedClass: 1

molecule: C[CH2][Sn]([Br])([CH2]C)[c]1ccccc1CN(C)C
assignedClass: 1

molecule: Cc1cc(N(CCCl)CCCl)ccc1C1N(Cc2ccc(N(CCCl)CCCl)cc2Cl)CCCN1Cc1ccc(N(CCCl)CCCl)cc1Cl
assignedClass: 1

molecule: CNC1C(O)CC(OC2C/C=C(\C)C/C(C)=C/C=C/CCC(C)CNC(=O)/C=C/C=C/C2C)OC1C (stereo not given)
assignedClass: 1

molecule: CC(=O)O.CC(=O)O.CC(=O)O.CC(=O)O.CC(=O)O.CC(=O)O.O.[Ti].[Ti]
assignedClass: -1

molecule: N.N.N.O=N[O-].O=N[O-].O=N[O-].[Co+3]
assignedClass: -1

molecule: CC(=O)OC1CC[C@@]2(C)C(=CC[C@@H]3[C@@H]2CC[C@]2(C)C(OC(C)=O)[C@H](n4ccnc4)C[C@@H]32)C1 (stereo not given in full)
assignedClass: 1

molecule: O=C(C1C(c2ccccc2)N1C1CCCCC1)C1C(c2ccccc2)N1C1CCCCC1 (stereo not given)
assignedClass: -1

molecule: CNCCc1c[nH]c2ccc(O)cc12
assignedClass: -1

molecule: O.O.[NH-]C1(C(=O)O)CCCC1.[NH-]C1(C(=O)O)CCCC1.[Ni+2]
assignedClass: -1

molecule: CCC1CN1P(=O)(Oc1ccccc1)N1CC1CC (stereo not given)
assignedClass: -1

molecule: CCN(CC)C(=S)SCc1ccccc1OC(=O)NC
assignedClass: -1

molecule: O=[N+]([O-])c1cc(-c2ccc([As](=O)(O)O)cc2)ccc1[As](=O)(O)O
assignedClass: -1

molecule: O=C(/C=C/c1ccccc1)Nc1ccc(Cl)cc1C(=O)c1ccccc1
assignedClass: -1

molecule: C1CCC(NC2CCCC2)C1
assignedClass: -1

molecule: [CH3][Sb]1([Cl])[CH2]CC[CH2]1
assignedClass: -1

molecule: Clc1nc(Cl)nc(Nc2ccccc2Cl)n1
assignedClass: 1

molecule: ClCC1CCN(CCc2ccccc2)CC1
assignedClass: -1

molecule: Cc1ccc(OP(Oc2ccc(C)cc2)Oc2ccc(C)cc2)cc1
assignedClass: -1

molecule: O.O=C(O)C(=O)O.[NH2-].[Zn]
assignedClass: -1
